The reader will find reported IC50 values listed item by item below.
- Tested on: 134 cancer cell lines
- ASSAY_TEXT: Cell viability assay (ATPlite, 72 hours), IC50 on cancer cell line panel
- DETAILS: Homo sapiens, Jurkat E6.1, read-out: IC50 in cell proliferation assay, Jurkat E6.1 cell line
ASSAY_METRIC: IC50 (µM)

> print(dat)
                            compound.string  censoring.qualifier   val
1  COC(=O)N[C@@H](C)CNc1nccc(-c2cn(C(C)C)nc2-c2cc(Cl)cc(NS(C)(=O)=O)c2F)n1                    =  1.03
2  CO[C@]1(C(=O)N[C@@H](C)c2ccc(-n3cc(F)cn3)nc2)CC[C@H](c2nc(C)cc(Nc3cc(C)[nH]n3)n2)CC1                    =  11.4
3  COc1ccc(CN2C3CC2CN(c2ccc(-c4cc(OCC(C)(C)O)cn5ncc(C#N)c45)cn2)C3)cn1                    =  4.03
4  Cn1cnc2c(F)c(Nc3ccc(Br)cc3Cl)c(C(=O)NOCCO)cc21                    >  31.6
5  CC(=O)Nc1cccc(-n2c(=O)n(C3CC3)c(=O)c3c(Nc4ccc(I)cc4F)n(C)c(=O)c(C)c32)c1                    >  28.2
6  O=C(Nc1cnn2ccc(N3CCC[C@@H]3c3cc(F)ccc3F)nc12)N1CC[C@H](O)C1                    >  31.6
7  O=C(c1ccc(F)c(F)c1Nc1ccc(I)cc1F)N1CC(O)([C@@H]2CCCCN2)C1                    >    10
8  Cc1nc(NC(=O)N2CCC[C@H]2C(N)=O)sc1-c1ccnc(C(C)(C)C(F)(F)F)c1                    =  12.9
